Target: T1, glypican-2 (GPC2), as used in the binding affinity test (UniProt Q8N158 24-553, limits assumed)
T1 construct: It states neither the form of the antigen nor the assay
T1 sequence (looked up): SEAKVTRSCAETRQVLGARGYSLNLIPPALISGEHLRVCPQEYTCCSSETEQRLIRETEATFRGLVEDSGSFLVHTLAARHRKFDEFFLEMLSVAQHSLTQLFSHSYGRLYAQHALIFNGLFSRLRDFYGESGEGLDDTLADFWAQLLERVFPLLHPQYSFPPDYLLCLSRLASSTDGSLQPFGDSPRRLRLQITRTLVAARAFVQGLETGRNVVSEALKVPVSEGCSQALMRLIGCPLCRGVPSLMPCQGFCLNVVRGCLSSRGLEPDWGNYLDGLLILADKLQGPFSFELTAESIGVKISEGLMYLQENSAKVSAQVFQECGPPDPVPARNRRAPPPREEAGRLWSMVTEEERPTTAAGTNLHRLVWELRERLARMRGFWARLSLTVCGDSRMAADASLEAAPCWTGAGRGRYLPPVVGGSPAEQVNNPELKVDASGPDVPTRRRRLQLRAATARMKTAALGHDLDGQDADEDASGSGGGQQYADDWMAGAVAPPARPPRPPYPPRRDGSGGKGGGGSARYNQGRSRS
Test: binding affinity for GPC2; method not stated (graphs in FIGS. 7A-7B)
Outcome Measure: binding affinity (nM)

>  <Binder>
hCT3-3 (humanized CT3 antibody) (antibody, V domains shown) VH: QVQLVQSGAEVKKPGASVKVSCKASRFTFTDYNIHWVRQAPGQGLEWIGYINPNNGDIFYKQKFNGKATMTVDTSTSTVYMELSSLRSEDTAVYYCVRSSNIRYTFDRFFDVWGQGTLVTVS VL: DIQMTQSPSSLSASVGDRVTITCRASSSVNYIYWYQQKSGKAPKLWIYYTSNLAPGVPSRFSGSGSGTDFTLTISSLQPEDFATYYCQQFSSSPSTFGQGTKLEIK

>  <Outcome Measure>
binding affinity

>  <Unit String>
nM

>  <Measured Value>
2.5

$$$$
>  <Binder>
CT3 antibody (parental murine GPC2-specific monoclonal antibody) (antibody, V domains shown, also called parental CT3 antibody; murine antibody CT3) VH: EVQLQQSGPELVKPGASVKMSCKASRFTFTDYNIHWVKQSPGKTLEWIGYINPNNGDIFYKQKFNGKATLTINKSSNTAYMELRSLTSEDSAVYYCVRSSNIRYTFDRFFDVWGTGTTVTVSS VL: ENVLTQSPAIMSASLGEKVTMSCRASSSVNYIYWYQQKSDASPKLWIYYTSNLAPGVPARFSGSGSGNSYSLTISSMEGEDAATYYCQQFSSSPSTFGTGTKLELK

>  <Outcome Measure>
binding affinity

>  <Unit String>
nM

>  <Measured Value>
2.2

$$$$
>  <Binder>
hCT3-4 (humanized CT3 antibody) (antibody, V domains shown) VH: QVQLVQSGAEVKKPGASVKVSCKASRFTFTDYNIHWVRQAPGQRLEWIGYINPNNGDIFYKQKFNGRVTITRDTSASTAYMELSSLRSEDTAVYYCVRSSNIRYTFDRFFDVWGQGTLVTVS VL: EIVLTQSPATLSLSPGERATLSCRASSSVNYIYWYQQKPGQAPRLWIYYTSNLAPGIPARFSGSGSGTDFTLTISSLEPEDFAVYYCQQFSSSPSTFGQGTKLEIK

>  <Outcome Measure>
binding affinity

>  <Unit String>
nM

>  <Measured Value>
3.3

$$$$
>  <Binder>
hCT3-1 (humanized CT3 antibody) (antibody, V domains shown) VH: QVQLVQSGAEVKKPGASVKVSCKASRFTFTDYNIHWVRQAPGQGLEWIGYINPNNGDIFYKQKFNGRVTLTADKSTSTAYMELSSLTSEDTAVYYCVRSSNIRYTFDRFFDVWGQGTLVTVSS VL: DVVMTQSPLSLPVTPGEPASISCRASSSVNYIYWYLQKPGQSPQLWIYYTSNLAPGVPDRFSGSGSGTDFTLKISRVEAEDVGVYYCQQFSSSPSTFGQGTKLEIK

>  <Outcome Measure>
binding affinity

>  <Unit String>
nM

>  <Measured Value>
4

$$$$
